// reported growth inhibition for each item listed
Assay: NCI Yeast Anticancer Drug Screen. Data for the wt1 strain (AID 149);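 also: 0% = growth of vehicle-treated wt1 cultures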
Settings: S. cerevisiae wt1 strain (SPY 50644) growth inhibition; at 100.0 µM; stronger effect = higher value
About 79,000 compounds went through this panel and 15% of them were active in at least one assay; those are over-represented in the sample as a whole.
Numbers only; they are read as %.

# smiles-structure, growth inhibition [%]
records = [
    ("COc1cc(N)ccc1Nc1c2ccccc2nc2ccccc12", 69),
]

Sample CC(=O)C1=C(C)O/C(=C/c2cccc(Cl)c2)C1=O ; growth inhibition observed: 25

Sample C/C(=N\NC(=S)NNC(=S)N(C)c1ccccc1)c1ccccn1 ; growth inhibition observed: 86

Sample O=C(N/N=C\c1c(Cl)cccc1Cl)N/N=C/c1c(Cl)cccc1Cl ; growth inhibition observed: 29

Sample COc1ccc(C(C#N)=C2C=CC(=NO)C=C2)cc1 ; growth inhibition observed: 97

Sample COC(=O)/C=C1/OC(c2ccc(Br)cc2)=C(Br)C1=O ; growth inhibition observed: 16

----------
Experiment: NCI Yeast Anticancer Drug Screen. Data for the cln2 rad14 strain (AID 165);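 also: 0% = growth equal to vehicle treated cultures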
Conditions: S. cerevisiae cln2 rad14 strain, at 50.0 µM (retest, dose inferred, filed as 5.0), stronger effect = higher value
Compounds without any hit were thinned out: in the full panel of roughly 79,000, 15% have a hit.
Criterion: growth inhibition meeting or surpassing 30%. Met: Criterion met. Not met: Criterion not met.

Some solved entries appear below for comparison.
# compound, qualitative-label
records = [
    ("CC(=O)Oc1ccc(C(=O)c2ccccc2)c(O)c1", "Criterion met"),
    ("O=S1(=O)c2ccccc2N=C(c2ccccc2Cl)CC1c1ccc(F)cc1 (stereo unspecified)", "Criterion not met"),
    ("CC(=O)[C@]1(O)Cc2c(O)c3c(c(O)c2[C@@H](OC2CC(N)C(O)C(C)O2)C1)C(=O)c1c(OCc2ccccc2)cccc1C3=O (stereo partly specified)", "Criterion met"),
    ("O=[N+]([O-])/C(C(Cl)=C(Cl)Cl)=C1/OCCS1", "Criterion met"),
    ("COc1cc(CNc2ccc(C(C)C)cc2)cc(OC)c1OC", "Criterion not met"),
    ("O=C(/C=C/c1cccc2ccccc12)c1ccc(Cl)cc1", "Criterion not met"),
    ("CO[C@@]12[C@H](COC(N)=O)C3=C(C(=O)C(C)=C(N)C3=O)N1C[C@@H]1N[C@@H]12", "Criterion met"),
    ("O=C(CNS(=O)(=O)Cc1ccccc1)NNc1ccccc1", "Criterion met"),
    ("CCCc1[nH]nc(C(N)=O)c1N=NN(C)C", "Criterion not met"),
    ("Nc1ccc2c(c1)sc1ccccc12", "Criterion not met"),
]

Next, consider the following compound.
Is the recorded value of growth inhibition equal to or greater than 30% for this compound? C/C=C/[P+](c1ccccc1)(c1ccccc1)c1ccccc1
Criterion not met

----------
// reported growth inhibition for each item listed
Test: NCI Yeast Anticancer Drug Screen. Data for the CLN2oe strain (AID 163);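 also: 0% = growth of vehicle-only control cultures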
Details: S. cerevisiae CLN2oe strain, at 1.2 µM, stronger effect = higher value
About 79,000 compounds went through this panel and 15% of them were active in at least one assay; those are over-represented in the sample as a whole.
Numbers only; they are read as %.

# molecule, growth inhibition / %
records = [
    ("Cc1cc(N=C2C=CC(=[N+](C)C)C=C2)c(N)cc1N", 35),
]

Sample Cn1ncc2cc3c(Nc4ccc(Cl)cc4)cccc3nc21 ; growth inhibition observed: -5

Sample O=NN(CCCl)C(=O)NCCCl ; growth inhibition observed: -10

Sample CC(C)(C)c1ccc(O)c(C(c2ccc([N+](=O)[O-])cc2)c2cc(C(C)(C)C)ccc2O)c1 ; growth inhibition observed: 2
